assayTarget: T1, human CTGF (Homo sapiens, UniProt P29279, H83D)
T1 construct: purchased Creative Biomart
T1 sequence (P29279 with tags, fused parts or gaps H83D): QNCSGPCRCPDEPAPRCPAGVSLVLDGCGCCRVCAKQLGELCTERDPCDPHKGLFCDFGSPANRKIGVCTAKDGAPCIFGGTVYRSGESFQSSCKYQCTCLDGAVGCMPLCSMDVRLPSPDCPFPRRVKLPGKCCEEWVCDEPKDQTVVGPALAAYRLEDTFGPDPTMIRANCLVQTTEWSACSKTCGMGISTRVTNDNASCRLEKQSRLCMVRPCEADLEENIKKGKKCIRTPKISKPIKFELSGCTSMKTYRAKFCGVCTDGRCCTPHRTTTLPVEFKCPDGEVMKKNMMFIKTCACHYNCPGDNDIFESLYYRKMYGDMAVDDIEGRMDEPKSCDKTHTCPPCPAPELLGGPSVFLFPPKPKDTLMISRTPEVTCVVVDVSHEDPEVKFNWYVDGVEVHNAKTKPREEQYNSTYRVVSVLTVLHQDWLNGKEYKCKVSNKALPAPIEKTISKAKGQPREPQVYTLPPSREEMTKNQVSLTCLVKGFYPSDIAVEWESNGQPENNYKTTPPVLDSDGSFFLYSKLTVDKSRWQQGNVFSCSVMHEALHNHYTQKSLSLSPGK
experimentNotes: SPR binding kinetics and affinity, human CTGF
measurementContext: 25° C., 1:1 binding model
measuredAttribute: human CTGF kon (M⁻¹ s⁻¹)
Give a bare numeral; the unit M⁻¹ s⁻¹ is implied.

SEQ ID NO: 26: optimized CTGF-binding hNGAL lipocalin mutein (protein, lipocalin mutein) QDSTSDLIPAPPLSKVPLQQNFQDNQFQGKWYVVGLAGNYRLREDKDPSKMGATIYELKEDKSYDVTQVQFDDKKCLYVIETFVPGSQPGEFTLGNIKVYPTLESQLVRVVSTNYNQHAMVFFKKVYQNREVFWITLYGRTKELTSELKENFIRFSKSLGLPENHIVFPVPIDQCIDG : 23200
SEQ ID NO: 18: optimized CTGF-binding hNGAL lipocalin mutein (protein, lipocalin mutein) QDSTSDLIPAPPLSKVPLQQNFQDNQFQGKWYVVGIAGNAILRDDKYPAKMFATIYELKEDKSYDVTSVRFENKSCIYTIKTFVPGSQPGEFTHGNIKSHPGQTSTLVRVVSTNYNQHAMVFFKHVSQNREIFVITLYGRTKELTSELKENFIRFSKSLGLPENHIVFPVPIDQCIDG : 40900

Now look at this entry.
## Input Look up human CTGF kon for this molecule: SEQ ID NO: 8: optimized CTGF-binding hNGAL lipocalin mutein (protein, lipocalin mutein) QDSTSDLIPAPPLSKVPLQQNFQDNQFQGKWYVVGLAGNYGLRTDKRPSKMFATIYELKEDKSYDVTSVRFEQERCHYTIRTFVPGSQPGEFTSGNIGNYPGSYSTLVRVVSTNYNQHAMVFFKSVIQNREYFAITLYGRTKELTSELKENFIRFSKSLGLPENHIVFPVPIDQCIDG
## Output 45400
